- Tested on: AcrIIA1 NTD (Listeria phage A006)
- PROCEDURE_DETAILS: MST
MEASUREMENT_KIND: pKd
Please note pKd is a logarithmic value: minus log10 of concentration in mol/L. Answer with that number alone.

Problem: Quick check: pKd on AcrIIA1 NTD (Listeria phage A006), item phage A006 anti-CRISPR promoter palindrome ?
Solution: 7.55

---

- Tested on: AcrIIA1 (phage A006) (Listeria phage A006)
- PROCEDURE_DETAILS: MST
- RUN_CONDITIONS: 34 nM stated in Example 5 (p151)
MEASUREMENT_KIND: pKd
Please note pKd is a logarithmic value: minus log10 of concentration in mol/L. Answer with that number alone.

Problem: // returns reported pKd for input phage A006 anti-CRISPR promoter palindrome
Solution: 7.59
